Target: T1, ZFP SBS#554 (synthetic)
T1 chain: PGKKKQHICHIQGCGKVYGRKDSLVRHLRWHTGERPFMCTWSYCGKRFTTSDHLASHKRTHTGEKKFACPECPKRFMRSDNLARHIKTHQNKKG
Assay: EMSA
Settings: tags: MBP fusion
quantity.name: Kd

binder="GAGTGTGTGA (dsDNA) DNA 1: GAGTGTGTGA DNA 2: TCACACACTC" assay_result="62.5 nM"
